Entry source: patent US20210380548A1

pIC50 listing for selected compounds.
- assayed target: HBO-KAT7 (Homo sapiens, UniProt O95251)
- Construct: encoding amino acid residues 325 to 611 (Uniprot 095251-1) of human KAT7; made in house; host or cells: E. coli BL21 DE3 RIL
- Sequence (O95251 with tags, fused parts or gaps): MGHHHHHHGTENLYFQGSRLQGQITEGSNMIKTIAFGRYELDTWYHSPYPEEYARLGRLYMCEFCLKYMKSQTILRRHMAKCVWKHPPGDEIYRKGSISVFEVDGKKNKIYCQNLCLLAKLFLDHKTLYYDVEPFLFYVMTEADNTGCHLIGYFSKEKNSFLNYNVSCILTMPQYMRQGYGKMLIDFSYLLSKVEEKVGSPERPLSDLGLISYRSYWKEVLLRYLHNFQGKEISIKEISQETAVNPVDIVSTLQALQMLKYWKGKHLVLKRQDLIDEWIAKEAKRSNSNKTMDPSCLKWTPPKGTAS
- method description: Revised Acetyltransferase Biochemical Assay, KAT7
- particulars: Table 9 (HBO-KAT7), 1 μM Acetyl coenzyme A
When answering, recall that pIC50 equals minus log10 of the concentration in mol/L, and write that number alone.

Worked cases, pIC50 given:
CN(C)C(=O)c1ccc2c(c1)S(=O)(=O)NC(C(=O)NCC(c1ccccc1)c1ncco1)=N2 (stereo not shown) | 6.26
CNC(=O)CCOC(=O)C(CNC(=O)C1=Nc2ccc(I)cc2S(=O)(=O)N1)c1ccccc1 (stereo not shown) | 6.14
O=C(NCC(c1ccc(F)cc1)c1ncco1)C1=Nc2ccc(Cl)cc2S(=O)(=O)N1 (stereo not shown) | 5.75

Turning now to a further record.
*Q* Please report the recorded pIC50 for O=C(NCCc1ccccc1C(F)(F)F)C1=Nc2ccc(I)cc2S(=O)(=O)N1 .
*A* 6.39

###

- assayed target: HBO-KAT7 (Homo sapiens)
- Construct: encoding amino acid residues 325 to 611 (Uniprot 095251-1) of human KAT7; made in house; host or cells: E. coli BL21 DE3 RIL
- method description: Revised Acetyltransferase Biochemical Assay, KAT7
- particulars: Table 9 (HBO-KAT7), 1 μM Acetyl coenzyme A
pIC50 listing for selected compounds.
When answering, recall that pIC50 equals minus log10 of the concentration in mol/L, and write that number alone.

O=C(NCC(c1ncco1)c1ccccc1F)C1=Nc2ccc(I)cc2S(=O)(=O)N1 (centres unmarked) | 6.94
CN(CC(c1ccccc1)c1ncco1)C(=O)C1=Nc2ccc(I)cc2S(=O)(=O)N1 (centres unmarked) | 5.78

*Q* Please report the recorded pIC50 for O=C(NCC(c1ccccc1)c1nc(CO)no1)C1=Nc2ccc(I)cc2S(=O)(=O)N1 (centres unmarked) .
*A* 6.39

*Q* Similarly, Cc1cccc(C(CNC(=O)C2=Nc3ccc(I)cc3S(=O)(=O)N2)c2ncco2)c1 (centres unmarked) ?
*A* 7.85

*Q* Similarly, O=C(NCC1(c2ccccc2)CCCC1)C1=Nc2ccccc2S(=O)(=O)N1 ?
*A* 5.56

*Q* Similarly, O=C(NCC(c1ncco1)c1ccccc1O)C1=Nc2ccc(I)cc2S(=O)(=O)N1 (centres unmarked) ?
*A* 7.04

*Q* Similarly, O=C(NCC(c1ccc(F)cc1)c1ccccn1)C1=Nc2ccc(Br)cc2S(=O)(=O)N1 (centres unmarked) ?
*A* 6.52

*Q* Similarly, CNC(=O)CCCOC(=O)C(CNC(=O)C1=Nc2ccc(I)cc2S(=O)(=O)N1)c1ccccc1 (centres unmarked) ?
*A* 6.25

###

- Tested on: histone H3 Lysine 14 acetylation (HBO1 mediated) in U2OS cells
- method description: Histone H3 Lysine 14 Acetylation Biomarker Assay (384-well, U2OS)
- Type: cell-based
- particulars: Homo sapiens, serum free medium, 24 hours incubation
outcome measure: IC50 (nM)
Only the number, expressed in nM, is required.

Worked cases, IC50 given:
COc1cccc(C(CNC(=O)C2=Nc3ccc(Br)cc3S(=O)(=O)N2)c2ncco2)c1 (stereo not shown) | 427
COCCC(CNC(=O)C1=Nc2ccc(I)cc2S(=O)(=O)N1)c1ccccc1 (stereo not shown) | 917
Cn1nc(-c2ccccc2CCNC(=O)C2=Nc3ccc(Cl)cc3S(=O)(=O)N2)oc1=O | 31200

*Q* Please report the recorded IC50 for O=C(NCC(c1cccc(OCC2CC2)c1)c1ncco1)C1=Nc2ccc(I)cc2S(=O)(=O)N1 (stereo not shown) .
*A* 1290

*Q* Similarly, O=C(NCC(c1cccc(O)c1)c1ncco1)C1=Nc2ccc(I)cc2S(=O)(=O)N1 (stereo not shown) ?
*A* 221

*Q* Similarly, O=C(NCC(c1ncco1)c1ccccc1O)C1=Nc2ccc(I)cc2S(=O)(=O)N1 (stereo not shown) ?
*A* 3250

*Q* Similarly, O=C(NCC(c1ccccc1)c1nccs1)C1=Nc2ccc(Cl)cc2S(=O)(=O)N1 (stereo not shown) ?
*A* 611

###

- System: histone H3 Lysine 14 acetylation (HBO1 mediated) in U2OS cells
- method description: Histone H3 Lysine 14 Acetylation Biomarker Assay (384-well, U2OS)
- Format: cell-based
- particulars: Homo sapiens, serum free medium, 24 hours incubation
- Protocol: Compounds may be tested for their ability to inhibit acetylation of the histone H3 Lysine 14 (which is HBO1 mediated) marker in the following assay: The cell line U2OS was seeded at a density of 3,000 cells per well in 384-well optical quality tissue culture plates in RPMI medium supplemented with 10% foetal bovine serum and 10 mM Hepes. The cells were allowed to adhere for 24 hours under standard culture conditions (37 degree Celsius, 5% CO2). […] Plates were washed and read on a […]
Please respond with true when measured IC50 is strictly beneath 2000 nM, and with false in all other cases.

The following molecules have reported results that may help.
CN(CC(c1ccccc1)c1ncco1)C(=O)C1=Nc2ccc(I)cc2S(=O)(=O)N1 (centres unmarked) | false
O=C(NCC(c1ccccc1)c1ncco1)C1=Nc2ccc(Cl)cc2S(=O)(=O)N1 (centres unmarked) | true

*Q* hey, is IC50 for COc1cccc(C(CNC(=O)C2=Nc3ccc(Cl)cc3S(=O)(=O)N2)c2ncco2)c1 (centres unmarked) lower than 2000 nM or not?
*A* false

*Q* Similarly, COc1cc(C)cc(C(CNC(=O)C2=Nc3ccc(I)cc3S(=O)(=O)N2)c2ncco2)c1 (centres unmarked) ?
*A* true

*Q* Similarly, O=C(NCC(c1ccccc1)c1n[nH]c(=O)o1)C1=Nc2ccc(I)cc2S(=O)(=O)N1 (centres unmarked) ?
*A* false

###

- assayed target: MOZ-KAT6A (Homo sapiens, UniProt Q92794, A567V)
- Construct: encoding amino acid residues 507 to 778 (Uniprot Q92794-1) of human KAT6A; made in house; host or cells: E. coli BL21 DE3
- Sequence (Q92794 507-778 A567V limits assumed): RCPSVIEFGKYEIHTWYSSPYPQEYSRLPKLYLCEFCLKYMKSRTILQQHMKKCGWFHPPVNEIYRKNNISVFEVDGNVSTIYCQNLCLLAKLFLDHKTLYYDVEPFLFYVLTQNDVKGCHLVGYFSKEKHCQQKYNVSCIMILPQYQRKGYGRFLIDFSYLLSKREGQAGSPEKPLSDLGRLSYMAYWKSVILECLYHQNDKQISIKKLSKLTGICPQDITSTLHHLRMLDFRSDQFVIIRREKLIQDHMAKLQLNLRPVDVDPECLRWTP
- method description: Acetyltransferase biochemical assay (AlphaScreen), KAT6A
- particulars: Table 2 (MOZ-KAT6A); 10 μM Acetyl coenzyme A, histone H3.1, 5 nM enzyme
outcome measure: pIC50
When answering, recall that pIC50 equals minus log10 of the concentration in mol/L, and write that number alone.

Cc1noc(C(CNC(=O)C2=Nc3ccc(I)cc3S(=O)(=O)N2)c2ccccc2)n1 (stereo not shown) [Example 56] | 7.09
O=C(NCC(c1ccccc1)c1ncco1)C1=Nc2ccc(O)cc2S(=O)(=O)N1 (single isomer, unassigned) [Example 148] | 5.27
COC(CNC(=O)C1=Nc2ccccc2S(=O)(=O)N1)c1ccccc1 (stereo not shown) [Example 74] | 4.17

*Q* Please report the recorded pIC50 for O=C(NCCc1ccccn1)C1=Nc2ccc(I)cc2S(=O)(=O)N1 [Example 107] .
*A* 4.92

###

- assayed target: MOZ-KAT6A (Homo sapiens, UniProt Q92794, A567V)
- Construct: encoding amino acid residues 507 to 778 (Uniprot Q92794-1) of human KAT6A; made in house; host or cells: E. coli BL21 DE3
- method description: Revised Acetyltransferase Biochemical Assay, KAT6A
- particulars: Table 8 (MOZ-KAT6A), 1 μM Acetyl coenzyme A
pIC50 listing for selected molecules.
When answering, recall that pIC50 equals minus log10 of the concentration in mol/L, and write that number alone.

Worked cases, pIC50 given:
O=C(NCC(c1ncco1)c1ccccc1F)C1=Nc2ccc(I)cc2S(=O)(=O)N1 (stereo not drawn) | 8.05
O=C(NCC(c1cccc(Cl)c1)c1ncco1)C1=Nc2ccc(I)cc2S(=O)(=O)N1 (stereo not drawn) | 7.77
Cc1ccc(C(CNC(=O)C2=Nc3ccc(I)cc3S(=O)(=O)N2)c2ncco2)cc1 (stereo not drawn) | 7.64
Cc1ccccc1C(CNC(=O)C1=Nc2ccc(I)cc2S(=O)(=O)N1)c1ncco1 (stereo not drawn) | 8.00
O=C(NCC(c1ccccc1)c1ncco1)C1=Nc2ccc(F)cc2S(=O)(=O)N1 (stereo not drawn) [Example 36] | 7.13
O=C(NCC(c1ccccc1)c1ncco1)C1=Nc2ccc(Br)cc2S(=O)(=O)N1 (stereo not drawn) [Example 1] | 8.30

*Q* Please report the recorded pIC50 for O=C(NCC1(c2ccccn2)CCCC1)C1=Nc2ccc(Cl)cc2S(=O)(=O)N1 .
*A* 6.45

*Q* Similarly, O=C(NCC(c1ncco1)c1ccccc1F)C1=Nc2ccc(Cl)cc2S(=O)(=O)N1 (stereo not drawn) ?
*A* 8.00

*Q* Similarly, O=C(NCC(c1ccccc1)c1ncco1)C1=Nc2ccc(-c3cscn3)cc2S(=O)(=O)N1 (stereo not drawn) ?
*A* 7.33

###

- assayed target: TIP60-KAT5 (Homo sapiens)
- Construct: encoding amino acid residues 2 to 461 (Uniprot Q92993-2) of human KAT5 isoform; made in house; host or cells: E. coli BL21 DE3
- Sequence (Q92993 2-461 isoform Q92993-2): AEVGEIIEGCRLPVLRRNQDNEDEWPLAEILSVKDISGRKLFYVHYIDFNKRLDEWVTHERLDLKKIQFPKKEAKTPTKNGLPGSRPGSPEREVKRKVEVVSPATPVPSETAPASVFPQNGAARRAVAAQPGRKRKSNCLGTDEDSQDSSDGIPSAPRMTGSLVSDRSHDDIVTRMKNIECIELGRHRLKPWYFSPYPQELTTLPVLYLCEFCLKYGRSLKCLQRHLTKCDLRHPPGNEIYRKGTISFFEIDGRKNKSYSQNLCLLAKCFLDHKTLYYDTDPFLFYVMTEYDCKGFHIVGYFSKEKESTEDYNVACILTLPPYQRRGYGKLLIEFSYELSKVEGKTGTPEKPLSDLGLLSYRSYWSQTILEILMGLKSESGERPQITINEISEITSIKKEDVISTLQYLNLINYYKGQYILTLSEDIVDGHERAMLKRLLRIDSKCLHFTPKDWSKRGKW
- method description: Acetyltransferase biochemical assay (AlphaScreen), KAT5
- particulars: Table 1 (TIP60-KAT5); 0.4 μM Acetyl coenzyme A, histone H4, 10 nM enzyme
IC50 listing for selected molecules.
Only the number, expressed in µM, is required.

*Q* Please report the recorded IC50 for O=C(NCC(c1ccccc1)c1ncco1)C1=Nc2ccc(C(=O)O)cc2S(=O)(=O)N1 (centres unmarked) .
*A* 7.16

*Q* Similarly, O=C(NCCc1ccccc1)C1=Nc2ccc(Br)cc2S(=O)(=O)N1 ?
*A* 16.7
